MEASUREMENT TARGET: Sodium-dependent noradrenaline transporter (Homo sapiens, UniProt P23975)
Sequence (P23975 whole entry): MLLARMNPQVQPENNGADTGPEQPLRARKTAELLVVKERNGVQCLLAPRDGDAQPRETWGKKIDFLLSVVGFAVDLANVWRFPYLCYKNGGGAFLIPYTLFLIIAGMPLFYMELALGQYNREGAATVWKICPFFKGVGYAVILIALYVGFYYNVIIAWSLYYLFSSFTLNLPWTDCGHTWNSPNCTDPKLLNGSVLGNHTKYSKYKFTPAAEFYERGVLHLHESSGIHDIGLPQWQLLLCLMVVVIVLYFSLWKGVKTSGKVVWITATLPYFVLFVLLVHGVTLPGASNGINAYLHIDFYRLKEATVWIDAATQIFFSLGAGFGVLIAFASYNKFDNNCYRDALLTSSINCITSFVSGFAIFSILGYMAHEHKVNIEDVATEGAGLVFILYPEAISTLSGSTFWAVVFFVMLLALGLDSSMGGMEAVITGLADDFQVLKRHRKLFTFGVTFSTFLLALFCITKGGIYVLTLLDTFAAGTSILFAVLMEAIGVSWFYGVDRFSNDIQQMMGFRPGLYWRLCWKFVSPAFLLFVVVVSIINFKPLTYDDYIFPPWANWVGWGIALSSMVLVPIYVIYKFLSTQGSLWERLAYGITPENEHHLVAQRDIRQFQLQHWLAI
ASSAY SUMMARY: Displacement of [125I]RTI-55 from human recombinant NET expressed in HEK293 cells by scintillation counting
Type: cell-based
METRIC NAME: Ki (µM)
Record the value in µM, omitting the unit from your answer.

// query I would be grateful if you could share the reported Ki for COc1ccc(F)c(CCCC2CCC(CCNCCCCCN3N=C(c4ccc(OC)c(OC)c4)[C@H]4CC=CC[C@H]4C3=O)O2)c1 (mixture of isomers) .
// result 7.44

* * *

MEASUREMENT TARGET: Sodium-dependent noradrenaline transporter (Homo sapiens)
ASSAY SUMMARY: Displacement of [3H]norepinephrine from human recombinant NET expressed in HEK293 cells by scintillation counting
METRIC NAME: IC50 (µM)
Record the value in µM, omitting the unit from your answer.

// query I would be grateful if you could share the reported IC50 for COc1ccc(F)c(CCCC2CCC(CCNCCCCCN3N=C(c4ccc(OC)c(OC)c4)[C@H]4CC=CC[C@H]4C3=O)O2)c1 (mixture of isomers) .
// result 7.44

* * *

MEASUREMENT TARGET: 3',5'-cyclic-AMP phosphodiesterase 4B (Homo sapiens)
Sequence (Q07343 whole entry): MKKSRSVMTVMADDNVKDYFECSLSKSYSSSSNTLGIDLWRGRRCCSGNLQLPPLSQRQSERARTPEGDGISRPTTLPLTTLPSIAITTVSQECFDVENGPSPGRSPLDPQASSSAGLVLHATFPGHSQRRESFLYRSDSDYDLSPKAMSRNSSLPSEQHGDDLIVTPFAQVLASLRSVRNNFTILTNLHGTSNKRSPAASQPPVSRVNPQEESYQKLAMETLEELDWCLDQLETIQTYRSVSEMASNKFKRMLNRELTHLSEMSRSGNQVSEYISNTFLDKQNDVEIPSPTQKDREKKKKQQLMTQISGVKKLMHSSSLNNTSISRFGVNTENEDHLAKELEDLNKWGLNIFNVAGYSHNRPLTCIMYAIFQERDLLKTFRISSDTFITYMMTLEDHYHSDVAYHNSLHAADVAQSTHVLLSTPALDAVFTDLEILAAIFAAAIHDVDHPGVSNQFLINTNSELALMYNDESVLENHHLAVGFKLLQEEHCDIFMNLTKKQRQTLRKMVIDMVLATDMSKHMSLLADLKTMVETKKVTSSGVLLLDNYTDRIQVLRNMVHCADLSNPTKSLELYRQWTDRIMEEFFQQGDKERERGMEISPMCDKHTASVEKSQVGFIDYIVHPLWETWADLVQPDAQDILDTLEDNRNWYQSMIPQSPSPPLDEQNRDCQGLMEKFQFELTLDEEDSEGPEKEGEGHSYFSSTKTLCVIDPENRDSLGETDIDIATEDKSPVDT
ASSAY SUMMARY: Inhibition of human recombinant PDE4B3 assessed as inhibition of cAMP hydrolysis
Items are presented alongside their recorded Ki.
Record the value in nM, omitting the unit from your answer.

{"COMPOUND": "COc1ccc(F)cc1CCC1CCC(CCNCCCCCN2N=C(c3ccc(OC)c(OC)c3)[C@H]3CC=CC[C@H]3C2=O)O1 (mixture of isomers)", "MEASUREMENT TARGET": "3',5'-cyclic-AMP phosphodiesterase 4B (Homo sapiens)", "RESULT UNITS": "nM", "Ki": 199}

// query I would be grateful if you could share the reported Ki for COc1ccc(C2=NNC(=O)C3CC=CCC23)cc1OC (stereo not drawn) .
// result 250

// query I would be grateful if you could share the reported Ki for COc1ccc(F)c(CCCC2CCC(CCNCCCCCN3N=C(c4ccc(OC)c(OC)c4)[C@H]4CC=CC[C@H]4C3=O)O2)c1 (mixture of isomers) .
// result 500

* * *

MEASUREMENT TARGET: 3',5'-cyclic-AMP phosphodiesterase 4A (Homo sapiens, UniProt P27815)
Sequence (P27815 whole entry): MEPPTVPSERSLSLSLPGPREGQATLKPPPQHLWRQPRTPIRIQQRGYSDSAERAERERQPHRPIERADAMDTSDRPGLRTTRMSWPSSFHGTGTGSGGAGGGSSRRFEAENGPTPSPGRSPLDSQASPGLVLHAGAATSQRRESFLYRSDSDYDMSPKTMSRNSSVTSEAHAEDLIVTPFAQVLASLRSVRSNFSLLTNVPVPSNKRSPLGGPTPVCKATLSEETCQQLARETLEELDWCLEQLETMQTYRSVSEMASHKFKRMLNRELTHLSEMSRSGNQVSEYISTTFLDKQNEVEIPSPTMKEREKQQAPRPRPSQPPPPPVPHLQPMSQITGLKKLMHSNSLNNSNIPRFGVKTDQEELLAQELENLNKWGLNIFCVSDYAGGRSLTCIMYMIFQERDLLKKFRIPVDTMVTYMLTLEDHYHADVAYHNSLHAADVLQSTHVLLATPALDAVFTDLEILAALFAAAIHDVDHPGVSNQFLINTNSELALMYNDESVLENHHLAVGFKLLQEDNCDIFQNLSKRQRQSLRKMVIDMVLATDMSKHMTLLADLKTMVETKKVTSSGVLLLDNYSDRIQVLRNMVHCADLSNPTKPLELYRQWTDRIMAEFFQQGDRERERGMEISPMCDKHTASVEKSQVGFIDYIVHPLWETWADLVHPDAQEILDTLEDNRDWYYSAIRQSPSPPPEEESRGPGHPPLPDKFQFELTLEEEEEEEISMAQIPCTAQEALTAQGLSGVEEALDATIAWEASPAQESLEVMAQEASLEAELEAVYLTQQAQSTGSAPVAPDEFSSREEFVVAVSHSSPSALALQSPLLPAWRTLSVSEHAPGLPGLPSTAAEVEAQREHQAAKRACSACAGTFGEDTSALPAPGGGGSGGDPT
ASSAY SUMMARY: Inhibition of human recombinant PDE4A1 assessed as inhibition of cAMP hydrolysis
pKi: −log10 of the molar value.
Items are presented alongside their recorded pKi.

Some entries whose results are on file:
{"COMPOUND": "COc1ccc(C2=NNC(=O)C3CC=CCC23)cc1OC (stereo not drawn)", "pKi": "< 6.00"}
{"COMPOUND": "COc1ccc(F)c(CCCC2CCC(CCNCCCCCN3N=C(c4ccc(OC)c(OC)c4)[C@H]4CC=CC[C@H]4C3=O)O2)c1 (mixture of isomers)", "pKi": "< 6.00"}

// query So what pKi did COc1ccc(F)cc1CCC1CCC(CCNCCCCCN2N=C(c3ccc(OC)c(OC)c3)[C@H]3CC=CC[C@H]3C2=O)O1 (mixture of isomers) get with 3',5'-cyclic-AMP phosphodiesterase 4A (Homo sapiens, UniProt P27815)?
// result < 6.00

* * *

Items are presented alongside their recorded IC50.
MEASUREMENT TARGET: Sodium-dependent dopamine transporter (Homo sapiens)
Sequence (Q01959 whole entry): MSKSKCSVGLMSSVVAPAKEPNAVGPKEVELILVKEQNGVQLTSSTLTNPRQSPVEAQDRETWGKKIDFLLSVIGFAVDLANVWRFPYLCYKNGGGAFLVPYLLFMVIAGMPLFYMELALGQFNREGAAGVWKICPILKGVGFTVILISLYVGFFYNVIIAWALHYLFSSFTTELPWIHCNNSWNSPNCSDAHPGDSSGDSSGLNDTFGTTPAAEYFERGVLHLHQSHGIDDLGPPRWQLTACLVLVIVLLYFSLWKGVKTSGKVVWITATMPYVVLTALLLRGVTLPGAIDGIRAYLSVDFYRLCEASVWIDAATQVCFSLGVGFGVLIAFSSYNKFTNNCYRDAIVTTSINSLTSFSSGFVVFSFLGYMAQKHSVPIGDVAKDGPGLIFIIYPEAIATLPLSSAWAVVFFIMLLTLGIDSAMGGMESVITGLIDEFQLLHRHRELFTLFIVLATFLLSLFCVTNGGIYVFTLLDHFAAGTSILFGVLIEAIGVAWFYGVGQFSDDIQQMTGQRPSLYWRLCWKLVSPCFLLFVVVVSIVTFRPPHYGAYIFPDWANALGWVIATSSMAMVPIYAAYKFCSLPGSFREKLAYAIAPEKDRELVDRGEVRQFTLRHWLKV
ASSAY SUMMARY: Displacement of [3H]dopamine from human recombinant DAT expressed in HEK293 cells by scintillation counting
Record the value in µM, omitting the unit from your answer.

{"COMPOUND": "COc1ccc(F)cc1CCC1CCC(CCNCCCCCN2N=C(c3ccc(OC)c(OC)c3)[C@H]3CC=CC[C@H]3C2=O)O1 (mixture of isomers)", "OBSERVED VALUE": 3.56}

Read the next record carefully.
// query I would be grateful if you could share the reported IC50 for COc1ccc(F)c(CCCC2CCC(CCNCCCCCN3N=C(c4ccc(OC)c(OC)c4)[C@H]4CC=CC[C@H]4C3=O)O2)c1 (mixture of isomers) .
// result 5.34
